Target Entity: human EphB2-His ectodomain - human EphrinB2-Fc ectodomain (EphB2-EphrinB2 tetramer) (Homo sapiens, UniProt P29323+P52799)
Sequence (P52799 28-229): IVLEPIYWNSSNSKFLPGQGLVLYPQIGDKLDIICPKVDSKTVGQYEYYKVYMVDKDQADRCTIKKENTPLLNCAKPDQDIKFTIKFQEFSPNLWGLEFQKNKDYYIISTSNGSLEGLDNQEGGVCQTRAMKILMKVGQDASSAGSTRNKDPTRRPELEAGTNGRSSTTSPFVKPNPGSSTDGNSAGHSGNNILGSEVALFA
Sequence (P29323 19-543): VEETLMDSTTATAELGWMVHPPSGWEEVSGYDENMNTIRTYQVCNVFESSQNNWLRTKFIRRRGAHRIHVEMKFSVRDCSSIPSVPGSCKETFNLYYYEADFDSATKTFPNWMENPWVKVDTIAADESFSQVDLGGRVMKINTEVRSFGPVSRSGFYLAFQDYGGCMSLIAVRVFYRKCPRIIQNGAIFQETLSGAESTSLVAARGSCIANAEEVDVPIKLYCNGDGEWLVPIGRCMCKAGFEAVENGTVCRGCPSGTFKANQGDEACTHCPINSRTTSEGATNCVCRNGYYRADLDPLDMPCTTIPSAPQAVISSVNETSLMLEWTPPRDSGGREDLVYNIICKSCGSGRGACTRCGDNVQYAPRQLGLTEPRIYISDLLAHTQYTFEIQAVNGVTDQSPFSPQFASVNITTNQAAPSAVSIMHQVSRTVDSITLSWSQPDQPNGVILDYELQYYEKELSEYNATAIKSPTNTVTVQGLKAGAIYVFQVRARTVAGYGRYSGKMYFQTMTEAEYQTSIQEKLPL
Test Protocol: biochemical
pIC50: −log10 of the molar value.
Value Kind: pIC50

Inquiry: Supply recorded pIC50 for CCOc1cc(C(Nc2cc(C)ccn2)c2ccc3cccnc3c2O)ccc1O (stereo not shown) [SW039498] here.
Reply text: < 5.49

###

Below: a set of entries, each annotated with reported IC50.
Target Entity: human EphB2-His ectodomain - human EphrinB2-Fc ectodomain (EphB2-EphrinB2 tetramer) (Homo sapiens, UniProt P29323+P52799)
Test Protocol: biochemical
Measurement Context: EphrinB2-EphB2 IC50 (Absolute, µM)
Counter-ions that a name gives are not always drawn.

For orientation, consider the following solved cases.
compound="O=S1(=O)CCN(Cc2cc(I)c(O)c3ncccc23)CC1 [QTM-I . 2 HCl]" value_kind=IC50 result="> 1.6 µM"
compound="Oc1ccc(CN2CCN(c3ccc(F)cc3F)CC2)c2cccnc12 [QPDF]" value_kind=IC50 result="> 1.6 µM"
compound="Oc1ccc(CN2CCN(c3ccccc3)CC2)c2cccnc12 [QPPh . 2HCl]" value_kind=IC50 result="> 1.6 µM"
compound="OCc1ccc2c(CN3CCOCC3)ccc(O)c2n1 [2OH-A19]" value_kind=IC50 result="> 3.2 µM"
compound="COc1ccc2[nH]cc(C(=O)N3CCN(c4ccc(Br)cc4)CC3)c2c1 [IPB4]" value_kind=IC50 result="> 1.6 µM"
compound="Oc1ccc(CN2CCN(c3ccc(I)cc3)CC2)c2cccnc12 [QPI4 . 2HCl]" value_kind=IC50 result="> 1.6 µM"
compound="Oc1c(Br)cc(CN2CCOCC2)c2cccnc12 [A20 . 2 HCl]" value_kind=IC50 result="0.78 µM"
compound="COc1ccccc1N1CCN(Cc2ccc(O)c3ncccc23)CC1 [3511-0013-BF]" value_kind=IC50 result="> 3.2 µM"
compound="COc1ccccc1N1CCN(Cc2cc(Br)c(O)c3ncccc23)CC1 [3511-0013]" value_kind=IC50 result="> 1.6 µM"

We next turn to a different compound, shown below.
Inquiry: Item Cc1ccc2c(CN3CCOCC3)cc(Br)c(O)c2n1 [2-MeA20] : provide IC50
Reply text: > 3.2 µM
